- assayExplanation: Solubility in FaSSIF (Fasted State Simulated Intestinal Fluid)
- Type: physicochemical
- recordedConditions: kinetic from dmso stock, FaSSIF pH 6.5, 25° C.
Reported solubility at 2 h values are given for each entry in this list.
measureName: solubility at 2 h

> print(dat)
                                querysmiles        measurename  observedresult
1  COc1ncnc(C2CC2)c1-c1ncc2ccc(=O)n(Cc3ccc(-c4nc(C(F)(F)F)cn4C(C)C)c(F)c3OC)c2n1  solubility at 2 h         < 10 µM
2  O=c1ccc2cnc(-c3c(OC(F)F)ncnc3C3CC3)nc2n1Cc1ccc(-c2nc(C(F)(F)F)cn2C2CC2)cc1  solubility at 2 h         < 10 µM
3  COc1ncnc(C2CC2)c1-c1ncc2ccc(=O)n(Cc3ccc(-c4nc(C(F)(F)F)cn4C(C)C)cc3)c2c1F  solubility at 2 h         < 10 µM
4  COc1ncnc(C2CC2)c1-c1ncc2cc(-c3cccnc3)c(=O)n(Cc3ccc(-c4nc(C(F)(F)F)cn4C4CC4)cc3)c2n1  solubility at 2 h        ≥ 100 µM
5  COc1ncnc(OC)c1-c1ncc2ccc(=O)n(Cc3ccc(-c4nc(C(F)(F)F)cn4C4CC4)cc3)c2n1  solubility at 2 h        ≥ 100 µM
6  COc1ncnc(C2CC2)c1-c1ncc2cc(-c3cn[nH]c3)c(=O)n(Cc3ccc(-c4nc(C(F)(F)F)cn4C4CC4)cc3)c2n1  solubility at 2 h        ≥ 100 µM
7  COc1ncnc(C2CC2)c1-c1ncc2c(C)c(-c3cnn(C)c3)c(=O)n(Cc3ccc(-c4nc(C(F)(F)F)cn4C4CC4)cc3)c2n1  solubility at 2 h    10 to 100 µM

src = patent US20240092779A1
